Molecular target: Human FXIa (Homo sapiens)
Construct: purchased Enzyme Research Labs or Haematologic Technologies Inc
Assay: FXIa enzymatic activity (chromogenic S-2366; fluorescent assay for high potency)
Assay type: biochemical
Settings: Table 1, Factor XIa, approximate; read-out: IC50(≅)
Experimental: Human FXIa activity (Enzyme Research Labs or Haematologic Technologies Inc.) was measured at room temperature in 96 well microtiter plates. […] After the three minute incubation, 100 μM substrate, S-2366, (L-Pyroglut-Pro-Arg-pNA, Diapharma Group, Inc.) was added and the enzyme velocity was measured using a Molecular Devices Spectro Max Plus (405 nm wavelength) in kinetic mode and analyzed using SOFTmax Pro (ver 3.0) software. […]
Exercise: state measured IC50 for each of the compounds provided.

Q: Query for Human FXIa (Homo sapiens): what IC50 does the record show for "N=C(N)NCCC[C@H]1C(=O)N(C(=O)c2cccs2)[C@@H]1C(=O)O" ?
A: ~2 nM

Q: // fetch Human FXIa (Homo sapiens) IC50 for "CC(C)(C)c1ccc(S(=O)(=O)N2C(=O)[C@H](CCCNC(=N)N)C2(C)C)cc1"
A: ~6 nM

Q: Request: IC50, test system Human FXIa (Homo sapiens), entry "N=C(N)NCCC[C@H]1C(=O)N(C(=O)N2CCN(C3=NCCCN3)CC2)[C@@H]1C(=O)O"
A: ~1 nM

Q: Provide the documented IC50 with Human FXIa (Homo sapiens) as the system for "CC(C)(C)NC(=O)N1CCN(C(=O)N2C(=O)[C@H](CCCNC(=N)N)[C@H]2C(=O)O)CC1"
A: ~2.8 nM

Q: Please provide the recorded IC50 for CN(C)c1cccc2c(S(=O)(=O)N3C(=O)[C@H](CCCNC(=N)N)C3C(=O)N3CCCCC3)cccc12 (some centres unmarked) , tested on Human FXIa (Homo sapiens).
A: ~6 nM

* * *

Target: urokinase (Homo sapiens)
Construct: purchased Abbott Labs Abbokinase
Experiment: Selectivity assay urokinase
Format: biochemical
Settings: Table 3
Assignment: determine reported IC50 for the given compounds.

Q: Which IC50 is reported for this compound? CS(=O)(=O)N[C@H](Cc1ccccc1)C(=O)N1CCC[C@H]1C(=O)NCC1CCN(C(=N)N)CC1 [Compound 16A]
A: > 333 µM

Q: So what does the record say about IC50 for Cc1cc2cc(NC(=NC(=O)c3ccc(C(=O)N(C)C)nc3)N[C@H]3CCCCN(CC(=O)N4CCCC4)C3=O)ccc2o1 [Compound 16B] ?
A: > 33 µM

* * *

Target: FXIIa (Homo sapiens)
Construct: purchased American Diagnostica
Sequence (P00748 373-615 limits assumed, other chains not shown): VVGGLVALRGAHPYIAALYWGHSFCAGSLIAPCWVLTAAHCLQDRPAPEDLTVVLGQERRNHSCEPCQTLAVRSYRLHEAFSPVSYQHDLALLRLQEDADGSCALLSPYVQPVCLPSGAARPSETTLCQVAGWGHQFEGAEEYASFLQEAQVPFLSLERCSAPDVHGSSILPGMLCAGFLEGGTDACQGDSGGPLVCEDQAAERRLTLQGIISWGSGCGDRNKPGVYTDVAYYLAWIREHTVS
Assay: Selectivity assay FXIIa
Format: biochemical
Settings: Table 3
I'd appreciate it if you could supply IC50 values for the items below.

Q: Form field: reported IC50 of "CC(C)(C)NC(=O)N1CCN(C(=O)N2C(=O)[C@H](CCCNC(=N)N)[C@H]2C(=O)O)CC1"
A: > 33 µM

Q: So what's the measured IC50 for this one? Cc1cc2cc(NC(=NC(=O)c3ccc(C(=O)N(C)C)nc3)N[C@H]3CCCCN(CC(=O)N4CCCC4)C3=O)ccc2o1 [Compound 16B]
A: 14.2 µM

Q: Would you mind telling me what IC50 value was observed for CS(=O)(=O)N[C@H](Cc1ccccc1)C(=O)N1CCC[C@H]1C(=O)NCC1CCN(C(=N)N)CC1 [Compound 16A] ?
A: > 33 µM

* * *

Target: Human FXIa (Homo sapiens, UniProt P03951)
Construct: purchased Enzyme Research Labs or Haematologic Technologies Inc
Sequence (P03951 388-625 limits assumed): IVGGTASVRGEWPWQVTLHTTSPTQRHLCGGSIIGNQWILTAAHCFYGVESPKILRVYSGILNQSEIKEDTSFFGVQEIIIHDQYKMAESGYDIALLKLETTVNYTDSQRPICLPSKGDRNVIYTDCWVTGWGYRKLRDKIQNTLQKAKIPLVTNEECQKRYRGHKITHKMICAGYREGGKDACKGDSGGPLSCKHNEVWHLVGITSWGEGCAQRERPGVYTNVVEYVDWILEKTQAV
Sequence (P03951 19-387 partner limits assumed): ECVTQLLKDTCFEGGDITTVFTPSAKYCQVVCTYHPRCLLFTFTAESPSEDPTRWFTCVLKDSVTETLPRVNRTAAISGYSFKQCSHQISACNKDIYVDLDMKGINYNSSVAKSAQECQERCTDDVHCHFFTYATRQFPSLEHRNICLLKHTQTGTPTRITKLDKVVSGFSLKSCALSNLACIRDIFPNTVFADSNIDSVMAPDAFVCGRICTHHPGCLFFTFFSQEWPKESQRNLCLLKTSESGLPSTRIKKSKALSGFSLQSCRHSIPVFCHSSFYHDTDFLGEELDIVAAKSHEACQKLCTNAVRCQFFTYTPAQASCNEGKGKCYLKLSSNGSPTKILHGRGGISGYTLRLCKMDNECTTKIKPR
Assay: FXIa enzymatic activity (chromogenic S-2366; fluorescent assay for high potency)
Assay type: biochemical
Conditions: Table 2, Factor XIa; read-out: IC50
measured parameter: IC50 (nM)
Numeric answer only, unit nM assumed.

Q: Give Human FXIa (Homo sapiens, UniProt P03951) IC50 for CC(=O)N1C(=O)C(CCCNC(=N)N)C1C(=O)O (stereo not drawn)
A: 77

Q: For the record CC(=O)N1C(=O)C(CCCNC(=N)N)C1CCc1ccccc1 (stereo not drawn) , what value of IC50 is listed for Human FXIa (Homo sapiens, UniProt P03951)?
A: 16

Q: Lab note: need IC50 for CN(C)c1cccc2c(S(=O)(=O)N3C(=O)C(CCCNC(=N)N)C3C(=O)O)cccc12 (stereo not drawn) on Human FXIa (Homo sapiens, UniProt P03951), anyone have it?
A: 24

Q: Query for Human FXIa (Homo sapiens, UniProt P03951): what IC50 does the record show for CC(=O)N1C(=O)C(CCCNC(=N)N)C1C(=O)N1CCCC1C(=O)O (stereo not drawn) ?
A: 105

Q: Can you look up IC50 on Human FXIa (Homo sapiens, UniProt P03951) for CC(C)(C)CC(=O)N1CCN(C(=O)N2C(=O)C(CCCNC(=N)N)C2C(=O)O)CC1 (stereo not drawn) ?
A: 16

Q: API: value(readout= IC50, system= Human FXIa (Homo sapiens, UniProt P03951), query= CCCCOC(=O)NC(=N)NCCCC1C(=O)N(C(C)=O)C1C(=O)N1CCCCC1 (stereo not drawn) )
A: 34
